B1: Histone H1t, residues 44 to 112; numbered along this chain, P22492 (parent)
chain: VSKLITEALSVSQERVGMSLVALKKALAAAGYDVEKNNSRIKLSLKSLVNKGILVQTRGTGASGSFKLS

variants of: B1; assay: abundance fitness (aPCA) (normalised: wild type 0, dead -1); higher = more abundant; growth selection in yeast, the domain comes from the species named; details: Homo sapiens
Grouping by measured abundance fitness is done with the following cut points: low interval (below -0.3), middle interval (-0.3 to below -0.06), high interval (-0.06 or more)

Q: Category of `L68R` , please.
Ans: middle interval

Q: Category of `N37Y` , please.
Ans: middle interval

Q: Category of `T60F` , please.
Ans: middle interval

Q: Category of `R58V` , please.
Ans: middle interval

Q: Category of `Q56T` , please.
Ans: high interval

Q: Category of `I53Q` , please.
Ans: high interval

Q: Category of `F66E` , please.
Ans: high interval

Q: Category of `L48V` , please.
Ans: low interval

Q: Category of `S44C` , please.
Ans: high interval

Q: Category of `K36A` , please.
Ans: middle interval

Q: Category of `L54I` , please.
Ans: high interval

Q: Category of `V21P` , please.
Ans: middle interval

Q: Category of `L20W` , please.
Ans: high interval

Q: Category of `S69W` , please.
Ans: high interval

Q: Category of `G31M` , please.
Ans: middle interval

Q: Category of `V49A` , please.
Ans: low interval

Q: Category of `L48R` , please.
Ans: low interval

Q: Category of `A26I` , please.
Ans: middle interval

Q: Category of `K67R` , please.
Ans: high interval

Q: Category of `S47K` , please.
Ans: middle interval

Q: Category of `L27A` , please.
Ans: low interval

Q: Category of `K51R` , please.
Ans: high interval

Q: Category of `L45S` , please.
Ans: low interval

Q: Category of `L20R` , please.
Ans: low interval

Q: Category of `L45W` , please.
Ans: middle interval

Q: Category of `A62K` , please.
Ans: high interval

Q: Category of `L45A` , please.
Ans: low interval

Q: Category of `K51L` , please.
Ans: middle interval

Q: Category of `N38T` , please.
Ans: high interval

Q: Category of `R40V` , please.
Ans: low interval

Q: Category of `S47A` , please.
Ans: high interval

Q: Category of `L43V` , please.
Ans: low interval

Q: Category of `G59Y` , please.
Ans: middle interval

Q: Category of `A26F` , please.
Ans: middle interval

Q: Category of `K51Y` , please.
Ans: low interval

Q: Category of `K46C` , please.
Ans: low interval

Q: Category of `A28R` , please.
Ans: high interval

Q: Category of `R40L` , please.
Ans: middle interval

Q: Category of `A30I` , please.
Ans: low interval

Q: Category of `S47G` , please.
Ans: low interval

Q: Category of `K51S` , please.
Ans: middle interval

Q: Category of `G64V` , please.
Ans: high interval

Q: Category of `L27W` , please.
Ans: low interval

Q: Category of `K42S` , please.
Ans: middle interval

Q: Category of `T60C` , please.
Ans: high interval
